test: P-glycoprotein substrates identified in KB-8-5-11 adenocarcinoma cell line, qHTS therapeutic library screen (AID 1346987); conditions: KB-8-5-11 (P-gp overexpressing) viability, CellTiter-Glo, 72 h; series mostly up to 44.5 µM; also: nearly all actives have a fitted effect of over 65% in size
Inconclusive results are not listed. Activity calls are given as the source filed them. Calls follow the shape of the dose curve; as a rule, active = well fitted inhibition curve with a large enough effect; inconclusive = small, poorly fitted or top-dose-only effect; inactive = flat fitted curve, though single readings scatter.
Labels: True for active, False for inactive

1) C/C=C1\[C@H](O[C@@H]2O[C@H](CO)[C@@H](O)[C@H](O)[C@H]2O)OC=C(C(=O)OC)[C@H]1CC(=O)OC[C@H]1O[C@@H](OCCc2ccc(O)cc2)[C@H](O)[C@@H](O)[C@@H]1O	False
2) CC1CC[C@]2(C(=O)O)CC[C@]3(C(=O)O)C(=CCC4[C@@]5(C)CC[C@H](O[C@@H]6O[C@H](CO)[C@@H](O)[C@H](O)[C@H]6O)C(C)(C)C5CC[C@]43C)C2C1C (stereo partly specified)	False
3) CNC(=O)c1ccccc1Nc1nc(Nc2ccc3c(c2OC)CCCC(N2CCN(CCO)CC2)C3)ncc1Cl (stereo unspecified)	True
4) CC(C)Oc1ccc(C(=O)NC(CNC(=O)CN(C)C)Cc2ccc(-c3cn4cccc(C(C)O)c4n3)cc2)cc1Cl (stereo unspecified)	True
5) CC1=C(/C=C/C(C)=C\C=C\C(C)=C/C(=O)O)C(C)(C)CCC1	False
6) O=C1NC(Cc2c[nH]c3ccccc23)C(=O)NC1Cc1c[nH]c2ccccc12 (stereo unspecified)	False
7) COc1cc(C(=O)OC[C@H]2O[C@@H](Oc3ccccc3/C=C/C(=O)O)[C@H](O)[C@@H](O)[C@@H]2O)cc(OC)c1OC	False
8) CCCC(=O)O[C@@H]1[C@@H]2[C@@H](OC(C)=O)[C@]3(C)C(=O)[C@H]4[C@@H](OC(C)=O)C(C)(C)C[C@H]4[C@]3(C)C(=O)[C@@]2(OC(C)=O)C[C@@H]1C	False
9) C=C1CCC2C(C)(C)CCC[C@]2(C)[C@H]1C/C=C(\CO)C(=O)C(=O)O (stereo partly specified)	False
10) CC(C)CCC(=O)CC1c2ccccc2C(=O)N1c1ccc2ccc(Cl)nc2n1 (stereo unspecified)	False
11) CC(=O)O[C@@H]1[C@@H](OC(=O)/C=C/c2ccccc2)[C@@H](OC(C)=O)[C@H](O[C@H]2[C@@H]3C=CO[C@@H](O[C@@H]4O[C@H](CO)[C@@H](O)[C@H](O)[C@H]4O)[C@@H]3[C@@]3(CO)O[C@@H]23)O[C@H]1C	False
12) O=C(Nc1ccc(S(=O)(=O)Nc2nccs2)cc1)C(c1ccccc1)c1ccccc1	False
13) COC(=O)C12CCC(C)C(C)C1C1=CCC3C4(C)CCC(OC(C)=O)C(C)(C)C4CCC3(C)C1(C)CC2 (stereo unspecified)	False
14) CC(=O)OCC1(O)CCC2C(COC3OC(CO)C(O)C(O)C3OC(=O)/C=C/c3ccc(O)cc3)=COC(OC(=O)CC(C)C)C21 (stereo unspecified)	False
15) COc1ccc([C@@H]2OC[C@H]3[C@@H]2CO[C@@H]3c2ccc(OC3OC(CO)C(O)C(O)C3O)c(OC)c2)cc1OC (stereo partly specified)	False
16) NC(=O)c1csc(C2OC(CO)C(O)C2O)n1 (stereo unspecified)	False
17) CC1(C)CC[C@]2(C(=O)O[C@@H]3O[C@H](CO)[C@@H](O)[C@H](O)[C@H]3O)CC[C@]3(C)C(=CCC4[C@@]5(C)C[C@@H](O)[C@H](O)[C@](C)(C(=O)O)C5CC[C@]43C)C2C1O (stereo partly specified)	False
18) C/C=C/c1ccc(O[C@@H]2O[C@H](CO)[C@@H](O)[C@H](O)[C@H]2O)c(OC)c1	False
19) COc1c2c(c(C)c3c1C(=O)OC3)O[C@@]1(C)CC(O)C(C(C)(C)O)[C@](C)(CCC(=O)O)[C@H]1C2 (stereo partly specified)	False
20) Cn1nnc(-c2ccc(-c3ccc(N4C[C@H](CO)OC4=O)cc3F)cn2)n1	False
21) CC(C)C(CO)Nc1nc(Nc2ccc(C(=O)O)c(Cl)c2)c2ncn(C(C)C)c2n1 (stereo unspecified)	False
22) CC(C)=CCC/C(C)=C/CO[C@@H]1O[C@H](CO)[C@@H](O)[C@H](O)[C@H]1O	False
23) Cc1ccccc1NC(=O)Nc1ccc(CC(=O)N(C)[C@@H](CC(C)C)C(=O)NCC[C@H](NC(=O)[C@@H]2CCCN2S(=O)(=O)c2cc(Cl)cc(Cl)c2)C(=O)O)cc1	False
24) CC(C)(C)NCCCNC(=O)c1cccc(Br)c1	False
25) COC(=O)CCC(=O)OC[C@]1(C)CCC[C@@]2(C)C3CC[C@]4(C)C=CC3(CCC12)C4 (stereo partly specified)	False
26) CNC(=O)c1ccccc1Nc1nc(Nc2ccc(N3CCNCC3)cc2)ncc1Cl	True
27) Nc1ccc(-c2cccc3c(=O)cc(N4CCOCC4)oc23)cc1	True
28) CCOCc1cc(OC)c(-c2ccc(C[C@H](NC(=O)c3c(F)cccc3F)C(=O)O)cc2)c(OC)c1	False
29) Cc1cc(-c2cc(O)ccc2Cl)cc2nnc(Nc3ccc(OCCN4CCCC4)cc3)nc12	True
30) CC(=O)OC[C@@]12C(=O)C[C@@H](C)[C@]3(C[C@@H](c4ccoc4)O[C@H]3OC(C)=O)[C@H]1CCC[C@]21CO1	False
31) CC(O)/C=C/C1C(C)C(O[C@@H]2O[C@H](CO)[C@@H](O)[C@H](O)[C@H]2O)C(O)CC1(C)C (stereo partly specified)	False

###

max response listing for selected compounds.
test system: HEK293; test: Cytotoxic Profiling of Annotated Libraries Using Quantitative High-Throughput Screening (AID 1296008); details: Five cell lines viability, CellTiter-Glo ATP luminescence, 48-72 h; active compounds read low; also: % is scaled to controls: 0 for no effect and ±100 for the full control effect; nearly all actives have a fitted effect of over 60% in size
Inconclusive results are not listed.
Metric name: max response (%)

1) COc1cc(C(=O)O)ccc1OC1OC(CO)C(O)C(O)C1O (centres undefined)	-3.87
2) CC1(C)CC2C(C1)C(C)(O)C13CC1(COC3=O)C2O (centres undefined)	-10.5
3) OC[C@H]1O[C@@H](OCCc2ccccc2)[C@H](O[C@@H]2OC[C@](O)(CO)[C@H]2O)[C@@H](O)[C@@H]1O	-11.4
4) COc1cc(C)c(C(=O)Oc2cc(C)c(C(=O)Oc3cc(C)c(C(=O)NC(C)C(=O)O)c(O)c3)c(O[C@@H]3O[C@H](CO)[C@@H](O)[C@H](O)[C@H]3OC(C)=O)c2)c(OC)c1 (some centres undefined)	-3.13
5) COc1ccc2c(OC)c3ccoc3nc2c1OC	-25.3
6) Cc1ccccc1C#Cc1ccc(CCC(=O)O)cc1	-13.9
7) C=C1C(=O)OC2C1C(O)CC1(C)C(O)CCC(C=O)C21 (centres undefined)	-0.284
8) COc1c2cc(c(O)c1OC)-c1cc(ccc1O)CCC(O)CCCC2 (centres undefined)	1.1
9) CC(=O)CCC1=C(C)C(O[C@@H]2O[C@H](CO)[C@@H](O)[C@H](O)[C@H]2O)C(O)CC1(C)C (some centres undefined)	0.019

###

assay: qHTS assay to identify inhibitors of the type 1 interferon - major histocompatibility complex class I in skeletal muscle: Counter screen cell viability and HiBit confirmation (AID 1347412); settings: iHSKM muscle cells + IFN-b, HiBiT or CellTiter-Glo, 24 h; Viability; at 45.9 µM (top of the series); also: % is scaled to controls: 0 for no effect and ±100 for the full control effect; nearly all actives have a fitted effect of over 60% in size
Results filed as inconclusive are left out.
activity change, negative = inhibition listing for selected compounds.
Metric name: activity change, negative = inhibition (%)

1. COC(=O)N[C@@H](C)CNc1nccc(-c2cn(C(C)C)nc2-c2cc(Cl)cc(NS(C)(=O)=O)c2F)n1	-18.1
2. Cc1ccc([N+](=O)[O-])cc1S(=O)(=O)N(C)/N=C/c1cnc2ccc(Br)cn12	-5.21
3. CCS(=O)(=O)N1CCN(c2ccc(Nc3ncc(C(N)=O)c(NC4CC4)n3)cc2)CC1	5.56
4. CCCCc1nc2cc(/C=C/C(=O)NO)ccc2n1CCN(CC)CC	3.05
5. Cc1cc(O)c(-c2ccc([C@@H](C)CN(C)C)cc2)c2c1[nH]c(=O)c1sccc12	-2.3
6. COc1cc(C(=O)NC2CCN(C)CC2)c(F)cc1Nc1ncc2c(n1)N(C1CCCC1)CC(F)(F)C(=O)N2C	-23.9
7. O=C(/C=C/c1cccc(S(=O)(=O)Nc2ccccc2)c1)NO	-9.07
8. CC(C)c1cc(CNc2nc(Nc3cc(C4CC4)[nH]n3)cc(N3CCN(C)CC3)n2)on1	6.65
9. CC(C)c1c2cc(-c3ccnc(NC4CCC(NC5CCOCC5)CC4)n3)ccc2nn1C (centres undefined)	-6.54

###

test system: NIH3T3; assay: Cytotoxic Profiling of Annotated Libraries Using Quantitative High-Throughput Screening (AID 1296008); settings: Five cell lines viability, CellTiter-Glo ATP luminescence, 48-72 h; active compounds read low; also: % is scaled to controls: 0 for no effect and ±100 for the full control effect; nearly all actives have a fitted effect of over 60% in size
Results filed as inconclusive are left out.
Metric name: max response (%)

1) C=C(C)C1CCC2(C(=O)O)CCC3(C(=O)O)C(CCC4C5(C)CCC(O)C(C)(C(=O)O)C5CCC43C)C12 (configuration not stated)	1.18
2) CC(=O)OC[C@H]1O[C@H](O[C@]2(CO)O[C@H](CO)[C@@H](OC(=O)/C=C/c3ccccc3)[C@@H]2O)[C@H](O)[C@@H](O)[C@@H]1O	-0.33
3) OC[C@H]1O[C@@H](OC(CCCCc2ccc(O)cc2)CCc2ccc(O)cc2)[C@H](O)[C@@H](O)[C@@H]1O (some centres not stated)	-27.4
4) CC(C)[N+]1(C)C2CCC1CC(OC(=O)C(CO)c1ccccc1)C2 (configuration not stated)	-9.66
5) COC(=O)N[C@H](C(=O)N1[C@@H]2CC[C@@H](C2)[C@H]1c1nc2ccc(-c3ccc4c(c3)C(F)(F)c3cc(-c5cnc([C@@H]6CCC7(CC7)N6C(=O)[C@@H](NC(=O)OC)C(C)C)[nH]5)ccc3-4)cc2[nH]1)C(C)C	-14.9
6) COc1cc(/C=C/C(=O)O[C@H]2[C@H](O)[C@@H](CO)O[C@@]2(CO)O[C@H]2O[C@H](CO)[C@@H](O)[C@H](O)[C@H]2O)ccc1O	1.81
7) CCOc1ccc(S(=O)(=O)n2c(C)nc3ccccc32)cc1	-7.13
